TEST_DETAILS: Solubility in different aqueous media at 37° C.
Format: physicochemical
DETAILS: 0.1M HCl, 37 °C, pH 1, simulated gastric fluid, thermodynamic from solid, 0.1M HCl; 3 days; average of 3 replicates; read-out: Solubility, μg dissolved per mL at 37° C., Average
PARAMETER: solubility at 3 days (µg/mL)
// units = µg/mL; emit number, no label

**Query** Bench note: what solubility at 3 days did C[C@@H]1CCC[C@H](n2cnc(-c3cc(Cl)ccc3-n3cc(Cl)nn3)cc2=O)c2cc(ccn2)-c2c(cnn2C(F)F)NC1=O [P1.Acetone solvate] show?
**Result** 3.49
